B1: tRNA (parent)
chain: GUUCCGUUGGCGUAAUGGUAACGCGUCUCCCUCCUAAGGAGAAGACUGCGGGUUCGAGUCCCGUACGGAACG

- Variants of: B1
- assay_info: yeast fitness relative to wild type (ratio to wild type); higher = fitter; tRNA-Arg(CCU), competitive growth, 37 C, YPD
Variants at the floor of the assay were thinned out.
Classify as follows. Reported yeast fitness greater than or equal to 0.6: y. Reported yeast fitness below: n.

The following variants have reported results that may help.
1) A14C C22G G25C G44A = n
2) G12A A15G G48C A57U = n
3) C27U A37G G38C A43C C62G = n
4) U8A G12A G44A C60U G67C = n
5) G6A C62G = y

# check: yeast fitness of A14G C24G C31U C55G G63C is greater than or equal to 0.6 n

# check: yeast fitness of C27A U32G G51A G56C is greater than or equal to 0.6 n

# check: yeast fitness of C5A G63U is greater than or equal to 0.6 y

# check: yeast fitness of A20C A36G is greater than or equal to 0.6 y

# check: yeast fitness of C11G C27U A43C A65U is greater than or equal to 0.6 n
